Cited source for all entries: ChEMBL document CHEMBL4359882

# MEASURED ON: UniProtKB P11511
# Sequence (P11511 whole entry): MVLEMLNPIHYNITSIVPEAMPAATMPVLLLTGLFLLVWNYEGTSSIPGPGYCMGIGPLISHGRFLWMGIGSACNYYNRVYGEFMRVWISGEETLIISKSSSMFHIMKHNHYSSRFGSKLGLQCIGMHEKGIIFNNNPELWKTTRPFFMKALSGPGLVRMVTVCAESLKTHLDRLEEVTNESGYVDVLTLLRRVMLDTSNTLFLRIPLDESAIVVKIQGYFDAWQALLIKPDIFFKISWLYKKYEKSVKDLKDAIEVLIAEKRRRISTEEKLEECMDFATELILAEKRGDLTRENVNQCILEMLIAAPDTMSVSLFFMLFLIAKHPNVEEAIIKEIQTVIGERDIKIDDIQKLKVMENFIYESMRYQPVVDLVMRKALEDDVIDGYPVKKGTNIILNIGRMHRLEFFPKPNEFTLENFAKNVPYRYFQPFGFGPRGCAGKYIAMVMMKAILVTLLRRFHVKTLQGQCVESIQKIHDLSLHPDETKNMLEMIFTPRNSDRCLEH
# RUN DESCRIPTION: Inhibition of recombinant human aromatase expressed in baculovirus infected insect cells using O-benzyl fluorescein benzyl ester as substrate in presence of NADPH generating system by fluorescence based analysis
READOUT LABEL: IC50 (nM)

>>> test_value("O=[N+]([O-])c1ccc(NC(=S)NCc2cccc(CNC(=S)Nc3ccc([N+](=O)[O-])cc3)c2)cc1")
800

[I] O=S(=O)(Nc1cccc(NS(=O)(=O)c2ccc(Cl)cc2)c1)c1ccc(Cl)cc1
[II] S=C(NCc1cccc(CNC(=S)Nc2ccc(Cl)cc2)c1)Nc1ccc(Cl)cc1
[III] N#Cc1ccc(S(=O)(=O)NCc2cccc(CNS(=O)(=O)c3ccc(C#N)cc3)c2)cc1
[IV] CC(=O)c1ccc(S(=O)(=O)NCc2cccc(CNS(=O)(=O)c3ccc(C(C)=O)cc3)c2)cc1
-- ask Rank by IC50 (largest to smallest). Answer by writing out the labels in the requested order.
-- reply II, I, IV, III
(II: 5500 nM, I: 780 nM, IV: 280 nM, III: 160 nM)

###

# Organism: Homo sapiens
# RUN DESCRIPTION: Selectivity index, ratio of IC50 for human MRC5 cells by MTT assay to IC50 for human recombinant aromatase expressed in baculovirus infected insect cells
READOUT LABEL: Ratio IC50

Solved cases below.
>>> test_value("O=S(=O)(NCc1cccc(CNS(=O)(=O)c2ccc(C(F)(F)F)cc2)c1)c1ccc(C(F)(F)F)cc1")
173
>>> test_value("O=[N+]([O-])c1ccc(S(=O)(=O)NCc2cccc(CNS(=O)(=O)c3ccc([N+](=O)[O-])cc3)c2)cc1")
"> 267"
>>> test_value("COc1ccc(S(=O)(=O)Nc2cccc(NS(=O)(=O)c3ccc(OC)cc3)c2)cc1")
"> 210"
>>> test_value("Cc1ccc(S(=O)(=O)NCc2cccc(CNS(=O)(=O)c3ccc(C)cc3)c2)cc1")
"> 865"
>>> test_value("N#Cc1ccc(S(=O)(=O)NCc2ccc(CNS(=O)(=O)c3ccc(C#N)cc3)cc2)cc1")
141

Record O=S(=O)(NCc1cccc(CNS(=O)(=O)c2ccc(Br)cc2)c1)c1ccc(Br)cc1 , field Ratio IC50: > 1450

###

# Tested on: MRC5
# RUN DESCRIPTION: Cytotoxicity against human MRC5 cells assessed as reduction in cell growth measured after 48 hrs by MTT assay
# Format: cell-based
# EXPERIMENTAL PARAMETERS: MRC5, 48 h
READOUT LABEL: IC50

>>> test_value("O=S(=O)(Nc1cccc(NS(=O)(=O)c2ccc(Cl)cc2)c1)c1ccc(Cl)cc1")
"63.1 µM"
>>> test_value("Cc1cc(C)c(C)c(S(=O)(=O)NCc2cccc(CNS(=O)(=O)c3c(C)c(C)cc(C)c3C)c2)c1C")
"80.9 µM"
>>> test_value("O=S(=O)(NCc1cccc(CNS(=O)(=O)c2ccc(Br)cc2)c1)c1ccc(Br)cc1")
"> 50 µg/mL"
>>> test_value("O=S(=O)(NCc1cccc(CNS(=O)(=O)c2ccc(C(F)(F)F)cc2)c1)c1ccc(C(F)(F)F)cc1")
"74.6 µM"
>>> test_value("N#Cc1ccc(S(=O)(=O)NCc2ccc(CNS(=O)(=O)c3ccc(C#N)cc3)cc2)cc1")
"92.8 µM"

Field IC50 (system: MRC5) for entry Cc1cc(C)c(C)c(S(=O)(=O)NCc2ccc(CNS(=O)(=O)c3c(C)c(C)cc(C)c3C)cc2)c1C = 16.3 µM

Field IC50 (system: MRC5) for entry O=[N+]([O-])c1ccc(S(=O)(=O)NCc2cccc(CNS(=O)(=O)c3ccc([N+](=O)[O-])cc3)c2)cc1 = > 50 µg/mL

Field IC50 (system: MRC5) for entry O=[N+]([O-])c1cccc(S(=O)(=O)NCc2cccc(CNS(=O)(=O)c3cccc([N+](=O)[O-])c3)c2)c1 = > 50 µg/mL

Field IC50 (system: MRC5) for entry COc1ccc(S(=O)(=O)Nc2cccc(NS(=O)(=O)c3ccc(OC)cc3)c2)cc1 = > 50 µg/mL

Field IC50 (system: MRC5) for entry O=S(=O)(NCc1cccc(CNS(=O)(=O)c2ccc(Cl)cc2)c1)c1ccc(Cl)cc1 = 68.5 µM
